From: PubChem BioAssay AID493170

- target-or-system: Ubiquitin carboxyl-terminal hydrolase 2 (Homo sapiens)
- measurement-notes: Ub-rhodamine 110 based assay for inhibitors Ubiquitin-specific Protease USP2a; further: nearly all actives have a fitted effect of over 50% in size
- experimental-setup: USP2a Ub-rhodamine110 cleavage, fluorescence; series mostly up to 38.3 µM
Records with an inconclusive call do not appear. Active and inactive are the calls of the source. The call rests on the fitted dose curve; in most records, active means well fitted inhibition curve with a large enough effect; inconclusive means small, poorly fitted or top-dose-only effect, or effect the other way; inactive means flat fitted curve, though single readings scatter.
Write down one outcome, taken from active, inactive

Completed entries (count: 4):
CN1CCN(Cc2c(O)ccc3c(=O)c(Oc4ccccc4Cl)c(C(F)(F)F)oc23)CC1	inactive
O=C(Nc1nc(-c2ccco2)c(-c2ccco2)s1)C1CC(=O)N(c2ccc3c(c2)OCCO3)C1 (stereo not given)	active
N#CCC(=O)Nc1ccc(C(=O)OCC(=O)NCc2ccc3c(c2)OCO3)cc1	active
O=C1CC(Nc2ccc(N3CCOCC3)cc2)C(=O)N1c1cccc(C(F)(F)F)c1 (stereo not given)	inactive

Okay, next one:
Prompt: Entry `CN(C)CCOCCP(=O)(c1ccccc1)c1ccccc1` : call = ?
Response: inactive
